study-system: T1, human prostate specific membrane antigen (PSMA), full-length, on cells (human, UniProt Q04609 1-750)
T1 construct: also called huPSMA; human PSMA
T1 sequence (Q04609 whole entry): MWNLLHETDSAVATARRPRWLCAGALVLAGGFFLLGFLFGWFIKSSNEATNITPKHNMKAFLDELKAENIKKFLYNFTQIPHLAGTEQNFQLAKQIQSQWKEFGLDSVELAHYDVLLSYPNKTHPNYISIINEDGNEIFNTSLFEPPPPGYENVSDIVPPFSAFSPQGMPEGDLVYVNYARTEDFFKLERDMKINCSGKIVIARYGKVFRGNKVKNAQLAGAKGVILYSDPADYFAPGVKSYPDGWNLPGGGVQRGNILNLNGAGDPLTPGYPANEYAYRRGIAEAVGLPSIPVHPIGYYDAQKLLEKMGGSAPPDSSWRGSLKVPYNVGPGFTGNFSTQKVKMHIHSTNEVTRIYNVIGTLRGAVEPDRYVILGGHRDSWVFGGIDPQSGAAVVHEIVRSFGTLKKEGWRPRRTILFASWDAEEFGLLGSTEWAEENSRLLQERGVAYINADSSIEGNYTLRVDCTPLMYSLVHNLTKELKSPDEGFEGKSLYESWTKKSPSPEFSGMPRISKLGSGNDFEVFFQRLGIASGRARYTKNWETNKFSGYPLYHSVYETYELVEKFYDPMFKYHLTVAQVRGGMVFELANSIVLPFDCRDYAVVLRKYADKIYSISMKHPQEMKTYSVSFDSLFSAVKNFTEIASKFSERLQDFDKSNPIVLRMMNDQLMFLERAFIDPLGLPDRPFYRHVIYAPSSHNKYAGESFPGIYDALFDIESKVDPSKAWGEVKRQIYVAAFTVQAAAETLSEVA
experiment-notes: FMAT direct cell binding, DU145 PSMA cells
quantity-name: EC50
Kindly report the value followed by its unit.

Please review the following examples before continuing.
1) single VH domain antibody 2.18 (VHH, Human single VH domain antibody (Humabody); C-terminal His tag, residues not tied) VHH: EVQLVESGGGVVQPGRSLRLSCAASGFSFSGYGQHWVRQAPGKGLEWVAYISYDASNKYYADNVKGRFTISRDNSKNTLYLQMNSLRAEDTAVYYCAKDPAWGLRLGESSSYDFDIWGQGTMVTVSS :: 250 pM
2) single VH domain antibody 2.22 (VHH, Human single VH domain antibody (Humabody); C-terminal His tag, residues not tied) VHH: EVQLVESGGGVVQPGRSLRLSCAASGFSFSGYGTHWVRQAPGKGLEWVAYISYDGSNKYYAAPVKGRFTISRDNSKNTLYLQMNSLRAEDTAVYYCAKDAAWGLRLGESSSYDFDIWGQGTMVTVSS :: 229 pM
3) single VH domain antibody 1.14 (VHH, Human single VH domain antibody (Humabody)) VHH: EVQLLESGGGLVQPGGSLRLSCAASGFSFSSYALSWVRQAPGKGLEWVSSIGENNATTDYADVVKGRFTISRDNSKNTLYLQMNSLRVEDTAVYYCVKDGVHWGQGTLVTVSS :: 52 pM

Shift focus to the following entry.
Req: Supply reported EC50 belonging to this binder: single VH domain antibody 1.10 (VHH, Human single VH domain antibody (Humabody)) VHH: EVQLLESGGGLVQPGGSLRLSCAASGFSFSSYALSWVRQAPGKGLEWVSSIGENNATTDYADFVKGRFTISRDNSKNTLYLQMNSLRVEDTAVYYCVKDGVHWGQGTLVTVSS
Resp: 67 pM
